These data points were gathered from PubChem BioAssay (NCI).

System: OVCAR-8 ovarian
Experiment: NCI-60 one-dose screen, 48 h
Settings: 10 µM unless noted
Compounds without any hit were thinned out: in the full panel of roughly 83,000, 20% have a hit. Calls of active or inactive are those of the source. Rule for the calls: active = growth percent below 10; inactive = the rest.
Response enum: yes = active, no = inactive

Ask: Hi, sorry to bother you, what did the test record for `CCOC(=O)c1nn(-c2ccccc2)c(=O)c2c(N)c(C#N)c(-c3cccs3)cc12` ?
Result: no

Ask: Hi, sorry to bother you, what did the test record for `Cc1ccc(-c2cc3nc(C(Cl)Cl)nc(-c4ccccc4)n3n2)cc1` ?
Result: no

Ask: Hi, sorry to bother you, what did the test record for `Cc1ccc(-c2cc(-c3cccc4ccccc34)n3c(n2)nc2ccccc23)cc1` ?
Result: no

Ask: Hi, sorry to bother you, what did the test record for `CC[C@@](C)(NC(=O)C(C)(C)NC(=O)[C@@H](NC(=O)[C@@H]1CCCN1C(=O)C(C)(C)NC(=O)[C@H](CC(C)C)NC(=O)CNC(=O)C(C)(C)NC(=O)[C@@H](NC(=O)C(C)(C)NC(=O)[C@H](CCC(N)=O)NC(=O)[C@H](C)NC(=O)C(C)(C)NC(=O)[C@H](C)NC(=O)C(C)(C)NC(=O)[C@H](C)NC(=O)C(C)(C)NC(C)=O)C(C)C)C(C)C)C(=O)N[C@@H](CCC(N)=O)C(=O)N[C@@H](CCC(N)=O)C(=O)N[C@H](CO)CC1CCCCC1` ?
Result: no

Ask: Hi, sorry to bother you, what did the test record for `CS(=O)(=O)c1nccc(-c2c(-c3ccc(F)c(OCCc4ccccc4)c3)nc3sccn23)n1` ?
Result: no

Ask: Hi, sorry to bother you, what did the test record for `O=c1[nH]c(CCl)nc2c1cnn2-c1ccccc1` ?
Result: no

Ask: Hi, sorry to bother you, what did the test record for `O=c1[nH]c2cc(Cl)ccc2n1C1CCN(c2ccc3nnc(Cl)n3n2)CC1` ?
Result: no

Ask: Hi, sorry to bother you, what did the test record for `O=C1Nc2cc(OC(F)(F)F)ccc2Oc2ccc(-c3ccnc(N4CC[C@H](O)C4)c3)cc21` ?
Result: yes

Ask: Hi, sorry to bother you, what did the test record for `Oc1ccc(CSc2nnc(-c3cnccn3)n2-c2ccccc2)c2cccnc12` ?
Result: no

Ask: Hi, sorry to bother you, what did the test record for `CC(=O)NC(C)(C)C(=O)N1CCC[C@H]1C(=O)NC(C)(C)C(=O)N[C@@H](C)C(=O)NC(C)(C)C(=O)NC(C)(C)C(=O)N[C@@H](CCC(N)=O)C(=O)NC(C)(C)C(=O)N[C@H](C(=O)NC(C)(C)C(=O)NCC(=O)N[C@@H](CC(C)C)C(=O)NC(C)(C)C(=O)N1CCC[C@H]1C(=O)N[C@H](C(=O)NC(C)(C)C(=O)NC(C)(C)C(=O)N[C@@H](CCC(N)=O)C(=O)N[C@@H](CCC(N)=O)C(=O)N[C@H](CO)Cc1ccccc1)C(C)C)C(C)C` ?
Result: no

Ask: Hi, sorry to bother you, what did the test record for `O=C(Nc1cccc(-c2nc(-c3ccc(NC(=O)c4cccs4)cc3Cl)no2)c1)Nc1ccc(NC(=O)C2CC2)c(C(F)(F)F)c1` ?
Result: yes

Ask: Hi, sorry to bother you, what did the test record for CCC(C)[C@H]1OC(=O)[C@H](C(C)C)N(C)C(=O)[C@@H](C(C)C)OC(=O)[C@H](C(C)C)N(C)C(=O)[C@@H](C(C)CC)OC(=O)[C@H](C(C)C)N(C)C1=O (some centres not stated) ?
Result: no
